Recorded MC4R IC50 by entry
Test Target: human recombinant MC4R (CHO-K1/Gα15 stable cell line, GenScript) (human, UniProt P32245 1-332)
Sequence (P32245 whole entry): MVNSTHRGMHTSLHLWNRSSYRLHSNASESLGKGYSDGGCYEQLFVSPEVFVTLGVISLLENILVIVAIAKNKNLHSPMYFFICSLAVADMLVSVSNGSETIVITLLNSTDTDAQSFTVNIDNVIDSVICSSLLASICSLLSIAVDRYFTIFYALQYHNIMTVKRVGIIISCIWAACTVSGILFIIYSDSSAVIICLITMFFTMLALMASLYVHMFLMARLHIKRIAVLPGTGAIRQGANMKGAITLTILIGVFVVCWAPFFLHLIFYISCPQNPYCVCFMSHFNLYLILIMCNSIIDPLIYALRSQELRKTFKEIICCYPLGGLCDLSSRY
Assay Overview: cell-based or functional assay
Starred links: 1 amine or outer side, 2 acyl side, 3 side chain; linkers in the order of their positions; H or OH if unused. Positions of bridges follow the written chain, without caps; N, C: chain ends. Non-standard residues stand in square brackets, D forms with d. *: point of attachment. Lys(N3) = [N-]=[N+]=NCCCC[C@H](N)C(=O)O; mXylylene = c1cc(C[*:1])cc(C[*:2])c1; Acetyl(4-pyridyl) = O=C(Cc1ccncc1)*; Nle = CCCC[C@H](N)C(=O)O; Pra = C#CC[C@H](N)C(=O)O
Number only, in nM; omit the unit.

Query :: Quick one: MC4R IC50 of Ac-[Nle]CH[dF]RCW-NH2 (linker 2-6 via mXylylene) [KR-032] ?
Result :: 194

Query :: Given the entry {Acetyl(4-pyridyl)}-[Nle][Lys(N3)]H[dF]RW[Pra]-NH2 (triazole 2-7; not fully specified; printed as PyAA-Nle-[Lys(N3)-His-DPhe-Arg-Trp-Pra]-NH2) [KR-074] , report its measured MC4R IC50.
Result :: 20.2

Query :: So what does the record say about MC4R IC50 for Ac-[Nle][Lys(N3)]H[dF]RW[Pra]N-NH2 (triazole 2-7; not fully specified; printed as Ac-Nle-[Lys(N3)-His-DPhe-Arg-Trp-Pra]-Asn-NH2) [KR-056] ?
Result :: 23.1
